Ref: ChEMBL document CHEMBL1134639

- Test system: PC-3
- assay-remarks: Inhibition of cell growth was determined in PC-3 cell line of human prostate tumor using MTT assay, on day 6 after treatment
- Format: functional
- condition-set: read-out: ID50 (the source's name)
recorded-metric: IC50 (nM)

| compound | study-system | obs-value |
| --- | --- | --- |
| CCNCCCCNCC1CC1CNCCCCNCC (stereo in doubt; 4) | PC-3 | 1600 |

* * *

- System: LNCaP
- assay-remarks: Inhibition of cell growth was determined in LNCaP cell line of Human prostate tumor using MTT assay, on day 6 after treatment
- Type: functional
- condition-set: Homo sapiens, LNCaP, 144 h; read-out: ID50 (the source's name)
pIC50: −log10 of the molar value.
Give condition met when the value for pIC50 is at least 6. Give condition not met when it is less.

| molecule | class-assignment |
| --- | --- |
| CCNC/C=C\CNCCCCNC/C=C\CNCC | condition not met |
| CCNCCCCNC/C=C/CNCCCCNCC | condition met |
| CCNCCCCNC/C=C\CNCCCCNCC | condition met |
| CCNCCCCNCC#CCNCCCCNCC | condition not met |
| CCNCCCCNCc1ccccc1CNCCCCNCC | condition not met |
| CCNCCCCNCC1CC1CNCCCCNCC (stereo in doubt; 7) | condition met |
| CCNC/C=C\CNCCCCNCCCCNCC | condition met |

* * *

- System: DuPro
- assay-remarks: Inhibition of cell growth was determined in DUPRO cell line of human prostate tumor using MTT assay, on day 6 after treatment
- Assay type: functional
- condition-set: read-out: ID50 (the source's name)
Examples of molecules with documented IC50 follow.

| molecule | IC50 (nM) |
| --- | --- |
| CCNCCCCNCC1CC1CNCCCCNCC (stereo in doubt; 4) | 59 |
| CCNCCCCNCC1CCC1CNCCCCNCC (stereo in doubt; 13) | 300 |
| CCNCCCCNCC1CCC1CNCCCCNCC (stereo in doubt; 10) | 80 |

* * *

- Test system: DuPro
- assay-remarks: Inhibition of cell growth was determined in DUPRO cell line of human prostate tumor using MTT assay, on day 6 after treatment
- Format: functional
- condition-set: Homo sapiens, DuPro, 144 h; read-out: ID50 (the source's name)
pIC50: −log10 of the molar value.
recorded-metric: pIC50

| structure-as-smiles | comparison-sign | obs-value |
| --- | --- | --- |
| CCNCCCCNCc1ccccc1CNCCCCNCC | < | 4.51 |
| CCNCCCCNCCCCNCCCCNCC | = | 6.70 |

* * *

- Tested on: PC-3
- assay-remarks: Inhibition of cell growth was determined in PC-3 cell line of human prostate tumor using MTT assay, on day 6 after treatment
- Format: functional
- condition-set: PC-3, 144 h, read-out: ID50 (the source's name)
pIC50: −log10 of the molar value.

| structure-as-smiles | study-system | pIC50 |
| --- | --- | --- |
| CCNCCCCNCC#CCNCCCCNCC | PC-3 | < 4.51 |
